List of Kd tested on UniProt Q5HYI8.
Sequence (Q5HYI8 whole entry): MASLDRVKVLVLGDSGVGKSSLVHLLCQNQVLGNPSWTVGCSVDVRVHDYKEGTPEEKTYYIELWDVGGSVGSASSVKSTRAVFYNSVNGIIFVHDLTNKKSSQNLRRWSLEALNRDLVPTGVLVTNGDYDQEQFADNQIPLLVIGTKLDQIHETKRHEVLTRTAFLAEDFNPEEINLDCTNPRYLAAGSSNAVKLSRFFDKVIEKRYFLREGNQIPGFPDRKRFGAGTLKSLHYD
The source made the active and inactive calls.

compound	result
CC(C)(C)c1nc(-c2cccc(NS(=O)(=O)c3c(F)cccc3F)c2F)c(-c2ccnc(N)n2)s1	> 30 µM (inactive)
O=C(NOCCO)c1cc(CN2OCCCC2=O)c(F)c(F)c1Nc1ccc(I)cc1F	> 30 µM (inactive)
Cc1cccc(-c2nn3c(c2-c2ccnc4ccc(C(N)=O)cc24)CCC3)n1	> 30 µM (inactive)
O=C(Nc1nc2cccc(-c3ccc(CN4CCS(=O)(=O)CC4)cc3)n2n1)C1CC1	> 30 µM (inactive)
C[C@@H](Oc1cc(C(=O)Nc2ccc(C(=O)N3CCN(C)CC3)cc2)nnc1N)c1c(Cl)ccc(F)c1Cl	> 30 µM (inactive)

Req: Item under review: C[C@@H](Oc1cc(-n2cnc3ccc(CN4CCN(C)CC4)cc32)sc1C(N)=O)c1ccccc1C(F)(F)F . Reported Kd?
Resp: > 30 µM (inactive)

Req: What about this compound? Cc1cc(Nc2ncc(Cl)c(Nc3ccccc3S(=O)(=O)C(C)C)n2)c(OC(C)C)cc1C1CCNCC1
Resp: > 30 µM (inactive)

Req: What about this compound? Cc1[nH]c(/C=C2\C(=O)Nc3ccccc32)c(C)c1CCC(=O)O [ORANTINIB]
Resp: > 30 µM (inactive)

Req: What about this compound? CNC(=O)c1nn(C)c2c1C(C)(C)Cc1cnc(Nc3ccc(N4CCN(C)CC4)cc3)nc1-2
Resp: > 30 µM (inactive)

Req: What about this compound? C#Cc1cccc(Nc2ncnc3cc(OC)c(OCCCCCCC(=O)NO)cc23)c1
Resp: > 30 µM (inactive)

Req: What about this compound? COc1cc(Nc2ncc3c(n2)-c2ccc(Cl)cc2C(c2c(F)cccc2OC)=NC3)ccc1C(=O)O
Resp: > 30 µM (inactive)

Req: What about this compound? Cc1cc(Nc2ncnc3ccc(NC4=NC(C)(C)CO4)cc23)ccc1Oc1ccn2ncnc2c1
Resp: > 30 µM (inactive)

###

target: Mitogen-activated protein kinase kinase kinase kinase 5 (Homo sapiens, UniProt Q9Y4K4); also: in the data inactive means no Kd found up to 30 µM
Sequence (Q9Y4K4 whole entry): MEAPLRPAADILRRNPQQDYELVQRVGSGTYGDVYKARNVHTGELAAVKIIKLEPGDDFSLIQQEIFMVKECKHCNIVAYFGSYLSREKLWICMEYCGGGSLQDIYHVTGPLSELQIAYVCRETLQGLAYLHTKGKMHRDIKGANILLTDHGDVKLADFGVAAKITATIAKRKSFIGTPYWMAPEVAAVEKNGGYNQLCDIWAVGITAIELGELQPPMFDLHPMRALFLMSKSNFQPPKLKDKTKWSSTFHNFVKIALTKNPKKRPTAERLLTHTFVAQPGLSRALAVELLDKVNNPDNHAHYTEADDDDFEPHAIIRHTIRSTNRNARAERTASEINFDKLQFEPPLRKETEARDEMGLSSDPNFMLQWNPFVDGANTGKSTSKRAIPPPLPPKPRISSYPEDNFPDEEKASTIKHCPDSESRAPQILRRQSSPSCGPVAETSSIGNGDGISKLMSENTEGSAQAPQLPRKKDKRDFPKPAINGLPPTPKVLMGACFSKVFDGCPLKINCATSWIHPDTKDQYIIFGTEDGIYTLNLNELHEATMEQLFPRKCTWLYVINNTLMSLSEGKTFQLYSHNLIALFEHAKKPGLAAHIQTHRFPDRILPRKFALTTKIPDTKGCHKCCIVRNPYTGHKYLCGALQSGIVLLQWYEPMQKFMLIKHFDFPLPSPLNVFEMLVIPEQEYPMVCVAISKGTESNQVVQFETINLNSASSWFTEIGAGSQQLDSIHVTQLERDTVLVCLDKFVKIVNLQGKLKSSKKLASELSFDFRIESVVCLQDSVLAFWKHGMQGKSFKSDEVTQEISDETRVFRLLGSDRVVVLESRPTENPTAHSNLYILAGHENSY
Calls of active or inactive are those of the source.
Please state which outcome applies, choosing from active, inactive

Here's what some known entries look like.
compound	cat
CN(C[C@@H]1COCCO1)S(=O)(=O)Nc1ccc2ccc3ncc(-c4cnn(C)c4)cc3c(=O)c2c1 [MK-2461]	inactive
C[C@@H](N)c1ccc(C(=O)Nc2ccnc3[nH]ccc23)cc1 [Y-39983]	inactive
O=C(Cc1ccc(-c2ccc(OCCN3CCOCC3)cc2)cn1)NCc1ccccc1 [TIRBANIBULIN]	inactive
O=C1NC(=O)[C@@H](c2cn3c4c(cccc24)CCC3)[C@@H]1c1c[nH]c2ccccc12 [TIVANTINIB]	inactive
Cn1cc(-c2cnc3ccc4ccc(CS(=O)(=O)NCc5ccccn5)cc4c(=O)c3c2)cn1 [MK-8033]	inactive

Req: In this assay, the call recorded for CN1C/C=C/CCOc2cccc(c2)-c2ccnc(n2)Nc2cccc(c2)C1 [ZOTIRACICLIB] was what?
Resp: active

Req: What about this compound? CO[C@H]1C[C@@H]2CC[C@@H](C)[C@@](O)(O2)C(=O)C(=O)N2CCCC[C@H]2C(=O)O[C@H]([C@H](C)C[C@@H]2CC[C@@H](OC(=O)C(C)(CO)CO)[C@H](OC)C2)CC(=O)[C@H](C)/C=C(\C)[C@@H](O)[C@@H](OC)C(=O)[C@H](C)C[C@H](C)/C=C/C=C/C=C/1C [TEMSIROLIMUS]
Resp: inactive

Req: What about this compound? CO[C@H]1C[C@@H]2CC[C@@H](C)[C@@](O)(O2)C(=O)C(=O)N2CCCC[C@H]2C(=O)O[C@H]([C@H](C)C[C@@H]2CC[C@@H](OP(C)(C)=O)[C@H](OC)C2)CC(=O)[C@H](C)/C=C(\C)[C@@H](O)[C@@H](OC)C(=O)[C@H](C)C[C@H](C)/C=C/C=C/C=C/1C [RIDAFOROLIMUS]
Resp: inactive

Req: What about this compound? Cc1cc(Nc2ncc(Cl)c(Nc3ccccc3S(=O)(=O)C(C)C)n2)c(OC(C)C)cc1C1CCNCC1 [CERITINIB]
Resp: inactive

Req: What about this compound? N#CC1(c2ccc(NC(=O)c3cccnc3NCc3ccncc3)cc2)CCCC1 [RIVOCERANIB]
Resp: inactive
